Molecular target: Arginase-2, mitochondrial (Homo sapiens) (UniProt P78540)
Sequence (P78540 whole entry): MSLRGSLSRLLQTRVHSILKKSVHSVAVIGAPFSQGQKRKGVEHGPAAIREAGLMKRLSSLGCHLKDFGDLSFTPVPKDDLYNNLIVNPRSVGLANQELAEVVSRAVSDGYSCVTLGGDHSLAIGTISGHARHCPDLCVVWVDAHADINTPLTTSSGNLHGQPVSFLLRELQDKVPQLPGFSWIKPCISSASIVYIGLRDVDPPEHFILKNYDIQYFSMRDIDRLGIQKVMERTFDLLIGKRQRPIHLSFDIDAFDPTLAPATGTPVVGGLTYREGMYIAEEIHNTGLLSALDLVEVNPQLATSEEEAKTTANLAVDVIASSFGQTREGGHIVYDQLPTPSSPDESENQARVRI
Assay: in vitro enzyme assay to detect the production of urea directly proportional to the activity of Arginase II
Type: functional
Set-up: scale not given: in the data most compounds retested in dose-response had high values
Conditions: 33.3 µM
measuredMetric: Percent Effect (%)
Provide only the numeric value, understood in %.

INSERT INTO measurements (compound, experimentalresult) VALUES
  ('CC(C)(C)c1cnc(CN2CCC[C@H]2CO)o1', -0.712),
  ('Cc1nn(C)c(C)c1CC(=O)N1CCC(N(C)c2cccnn2)CC1', 4.98),
  ('O=C(Cn1cc(C(=O)O)ccc1=O)Nc1ccc(Cl)cc1F', -4.75),
  ('CC(C)c1nc(C2CCCN2CC(=O)N2CCc3ccccc32)no1 (centres undefined)', -1.15),
  ('c1ccc(-c2nc(CNC3CCc4ncnn4C3)co2)cc1 (centres undefined)', -3.92);

Given "CNC(=O)N1CC[C@@H]2CN(Cc3cccnc3)S(=O)(=O)[C@@H]2CC1" , state its recorded Percent Effect. 0.319

Given Cn1ccnc1CN(CCCO)C1CCCc2ccccc21 (centres undefined) , state its recorded Percent Effect. -2.37

Given Cc1c(NC(=O)NCC(C)N2CCOCC2)cccc1OC(F)F (centres undefined) , state its recorded Percent Effect. 2.5

Given NC(=O)C(CNC(=O)COCC(F)(F)F)Cc1ccc(F)cc1 (centres undefined) , state its recorded Percent Effect. -5.92

Given CCc1cccc(OCC(=O)N2CCCC(n3cncn3)C2)c1 (centres undefined) , state its recorded Percent Effect. 2

Given Cc1nc(C2CCCN2CC(=O)N2CCCc3ccccc32)no1 (centres undefined) , state its recorded Percent Effect. 3.45

Given "CN(C)Cc1nnc(C2CCN(c3nccc(N)n3)CC2)n1C1CC1" , state its recorded Percent Effect. 0.442

Given COc1ccccc1C(=O)NC(CC(=O)O)c1cccs1 (centres undefined) , state its recorded Percent Effect. 2.8

Given "Cc1noc([C@H]2C[C@@H]3CCN(CC4CC4)C[C@H]3O2)n1" , state its recorded Percent Effect. -0.645

Given Cc1ccc(C(=O)N2CCCC(NC(=O)C(C)C)C2)c(O)c1 (centres undefined) , state its recorded Percent Effect. -4.41

Given "CNc1nc(CNC(=O)Nc2cccc(F)c2)cs1" , state its recorded Percent Effect. -4.99

Given "CCCn1[nH]cc/c1=N\C(=O)CN1CCn2c(nnc2C2CC2)C1" , state its recorded Percent Effect. 3.83

Given CC(=O)N1CCn2c(COCc3csc(C)n3)cnc2C1C (centres undefined) , state its recorded Percent Effect. -55.7

Given Cc1nc(C)n(CC2CCCN2CCCc2ccccc2)n1 (centres undefined) , state its recorded Percent Effect. 1.82

Given "O=C(c1cnccn1)N1CCc2onc(CN3CCOCC3)c2C1" , state its recorded Percent Effect. 2.87

Given "CC(C)N1CCC(NCc2cccnc2N(C)Cc2ccccc2)CC1" , state its recorded Percent Effect. 1.04

Given CCC(C)NC(=O)NCCCn1nc2ccccn2c1=O (centres undefined) , state its recorded Percent Effect. -3.61

Given CCN1CCOC(CNCc2ccccc2OCc2ccccn2)C1 (centres undefined) , state its recorded Percent Effect. 3.24

Given "O=C(c1ccncc1)N1CCCn2c(CN3CCCCC3)nnc2C1" , state its recorded Percent Effect. -5.36
